Provenance of the data: paper PMC6801405

- test_method_notes: Cytotoxicity assay (XTT method)
- Type: cell-based, Human
- assay_conditions: human, Huh-7 cells, 20 μM; 72 h; XTT; mean ± SD; read-out: Huh-7 Cell % viability at 20 μM

compound	unit_string	viability at 72 h, 20 µM
COc1ccc(C(=O)c2nc3ccccc3nc2-c2ccc(F)cc2)cc1 [Compound 23b]	%	104
COc1ccc(C(O)c2nc3ccccc3nc2-c2ccccc2)cc1 (stereo not shown) [Compound 15b]	%	103
OC(c1ccccc1)c1nc2ccccc2nc1-c1ccccc1 (stereo not shown) [Compound 15a, Phenyl(3-phenylquinoxalin-2-yl)methanol]	%	105
COc1ccc(C(O)c2nc3ccccc3nc2-c2ccc(F)cc2)cc1 (stereo not shown) [Compound 17b]	%	102

---

- test_method_notes: Cytotoxicity assay (XTT method)
- Type: cell-based, Human
- assay_conditions: human, Huh-7 cells, 200 μM; 72 h; XTT; mean ± SD; read-out: Huh-7 Cell % viability at 200 μM
experimental_endpoint: viability at 72 h, 200 µM (%)

molecule	experimental_endpoint	unit_string	recorded_result
O=C(c1ccc(O)cc1)c1nc2ccccc2nc1-c1ccccc1	viability at 72 h, 200 µM	%	18.4
OC(c1ccccc1)c1nc2cc(Cl)c(Cl)cc2nc1-c1ccccc1 (centres unmarked) [Compound 16a]	viability at 72 h, 200 µM	%	20.6
O=C(c1ccccc1)c1nc2cc(Cl)c(Cl)cc2nc1-c1ccccc1 [Compound 22a]	viability at 72 h, 200 µM	%	103
COc1ccc(C(=O)c2nc3ccccc3nc2-c2ccc(F)cc2)cc1 [Compound 23b]	viability at 72 h, 200 µM	%	103
COc1ccc(C(O)c2nc3cc(Cl)c(Cl)cc3nc2-c2ccccc2)cc1 (centres unmarked) [Compound 16b]	viability at 72 h, 200 µM	%	73
COc1ccc(C(=O)c2nc3cc(Cl)c(Cl)cc3nc2-c2ccc(OC)cc2)cc1 [Compound 26b]	viability at 72 h, 200 µM	%	99.1
COc1ccc(C(=O)c2nc3ccccc3nc2-c2ccccc2)cc1 [Compound 21b]	viability at 72 h, 200 µM	%	95.1
COc1ccc(-c2nc3cc(Cl)c(Cl)cc3nc2C(O)c2ccccc2)cc1 (centres unmarked) [Compound 20a]	viability at 72 h, 200 µM	%	27.1
O=C(c1ccccc1)c1nc2ccccc2nc1-c1ccccc1 [Compound 21a, Phenyl(3-phenylquinoxalin-2-yl)methanone]	viability at 72 h, 200 µM	%	79.5
COc1ccc(-c2nc3cc(Cl)c(Cl)cc3nc2C(=O)c2ccccc2)cc1 [Compound 26a]	viability at 72 h, 200 µM	%	35.3
COc1ccc(-c2nc3ccccc3nc2C(O)c2ccccc2)cc1 (centres unmarked) [Compound 19a]	viability at 72 h, 200 µM	%	85
O=C(c1ccc(O)cc1)c1nc2ccccc2nc1-c1ccc(O)cc1	viability at 72 h, 200 µM	%	51.9
O=C(c1ccccc1)c1nc2ccccc2nc1-c1ccc(F)cc1 [Compound 23a]	viability at 72 h, 200 µM	%	87.6
OC(c1ccccc1)c1nc2cc(Cl)c(Cl)cc2nc1-c1ccc(F)cc1 (centres unmarked) [Compound 18a]	viability at 72 h, 200 µM	%	21.5
COc1ccc(C(=O)c2nc3ccccc3nc2-c2ccc(OC)cc2)cc1 [Compound 25b]	viability at 72 h, 200 µM	%	99.4
OC(c1ccccc1)c1nc2ccccc2nc1-c1ccccc1 (centres unmarked) [Compound 15a, Phenyl(3-phenylquinoxalin-2-yl)methanol]	viability at 72 h, 200 µM	%	59.9
COc1ccc(-c2nc3cc(Cl)c(Cl)cc3nc2C(O)c2ccc(OC)cc2)cc1 (centres unmarked) [Compound 20b]	viability at 72 h, 200 µM	%	34.2
COc1ccc(C(=O)c2nc3cc(Cl)c(Cl)cc3nc2-c2ccccc2)cc1 [Compound 22b]	viability at 72 h, 200 µM	%	92
COc1ccc(C(O)c2nc3ccccc3nc2-c2ccccc2)cc1 (centres unmarked) [Compound 15b]	viability at 72 h, 200 µM	%	61.4
COc1ccc(-c2nc3ccccc3nc2C(O)c2ccc(OC)cc2)cc1 (centres unmarked) [Compound 19b]	viability at 72 h, 200 µM	%	21.3
O=C(c1ccc(O)cc1)c1nc2ccccc2cc1-c1ccc(O)cc1 [Compound 4, reference compound]	viability at 72 h, 200 µM	%	41.4
COc1ccc(-c2cc3ccccc3nc2C(O)c2ccccc2)cc1 (centres unmarked) [Compound 3, reference compound]	viability at 72 h, 200 µM	%	21.9
OC(c1ccccc1)c1nc2ccccc2nc1-c1ccc(F)cc1 (centres unmarked) [Compound 17a]	viability at 72 h, 200 µM	%	73.3
COc1ccc(C(O)c2nc3ccccc3nc2-c2ccc(F)cc2)cc1 (centres unmarked) [Compound 17b]	viability at 72 h, 200 µM	%	101
O=C(c1ccccc1)c1nc2cc(Cl)c(Cl)cc2nc1-c1ccc(F)cc1 [Compound 24a]	viability at 72 h, 200 µM	%	91.9
COc1ccc(-c2nc3ccccc3nc2C(=O)c2ccccc2)cc1 [Compound 25a]	viability at 72 h, 200 µM	%	100
